The origin of these recorded values is ChEMBL document CHEMBL1134838.

# Experimental System: Norepinephrine transporter (Rattus norvegicus, UniProt Q9WTR4)
# Sequence (Q9WTR4 whole entry): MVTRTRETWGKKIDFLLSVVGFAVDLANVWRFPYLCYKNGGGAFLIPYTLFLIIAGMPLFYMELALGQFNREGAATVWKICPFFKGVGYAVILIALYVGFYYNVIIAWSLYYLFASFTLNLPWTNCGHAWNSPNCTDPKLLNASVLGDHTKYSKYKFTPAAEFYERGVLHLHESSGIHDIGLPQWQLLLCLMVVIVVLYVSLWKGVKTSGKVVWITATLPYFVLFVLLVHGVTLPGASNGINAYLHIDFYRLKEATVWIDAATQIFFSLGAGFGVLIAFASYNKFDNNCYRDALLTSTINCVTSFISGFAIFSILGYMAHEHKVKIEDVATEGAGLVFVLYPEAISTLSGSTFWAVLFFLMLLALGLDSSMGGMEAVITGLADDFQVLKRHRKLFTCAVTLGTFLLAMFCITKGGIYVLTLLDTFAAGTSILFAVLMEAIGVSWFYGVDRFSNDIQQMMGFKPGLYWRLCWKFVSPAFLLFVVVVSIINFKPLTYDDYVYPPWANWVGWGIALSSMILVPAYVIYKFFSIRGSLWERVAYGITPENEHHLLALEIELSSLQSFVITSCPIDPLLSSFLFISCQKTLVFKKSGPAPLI
# Assay: Binding affinity for norepinephrine transporter in rat brain using [3H]-nisoxatine as radioligand
# Format: tissue-based
I'd appreciate it if you could supply Ki values for the items below.
In your response, the unit should come after the numeric value.

Bench note: what Ki did C=CCN1C2CCC1CC(OC(c1ccc(Cl)cc1)c1ccc(Cl)cc1)C2 (stereo not drawn) show?
4.14 µM

Bench note: what Ki did CCCc1cccc(N2[C@H]3CC[C@]2(C)C[C@@H](OC(c2ccccc2)c2ccc(Cl)cc2)C3)c1 (stereo partly drawn) show?
10.3 µM

Bench note: what Ki did CCCc1cccc(N2[C@@H]3CC[C@H]2C[C@H](OC(c2ccccc2)c2cccc(Cl)c2)C3)c1 (stereo partly drawn) show?
1.81 µM
